system: Arabidopsis thaliana afb5‐1 mutant line; format: in vivo; settings: afb5‐1, foliar application, dry weight at 14 DAT
Measured property: GR50 (DW % of NT) (g ai ha^−1)
Numbers only; they are read as g ai ha^−1.

Query: GR50 (DW % of NT); subject: O=C(O)c1c(Cl)ccc2cc(Cl)cnc12 [Quinclorac]
1002

Query: GR50 (DW % of NT); subject: COc1c(Cl)ccc(-c2nc(C(=O)O)c(Cl)c(N)c2F)c1F [Florpyrauxifen]
1

Query: GR50 (DW % of NT); subject: COc1c(Cl)ccc(Cl)c1C(=O)O [Dicamba]
60.8

Query: GR50 (DW % of NT); subject: Nc1c(Cl)c(F)nc(OCC(=O)O)c1Cl [Fluroxypyr]
84.1

Query: GR50 (DW % of NT); subject: Nc1c(F)c(-c2ccc(Cl)cc2)nc(C(=O)O)c1Cl [DAS534]
1.2

Query: GR50 (DW % of NT); subject: Nc1nc(C2CC2)nc(C(=O)O)c1Cl [Aminocyclopyrachlor]
8.3

Query: GR50 (DW % of NT); subject: Nc1c(Cl)c(Cl)nc(C(=O)O)c1Cl [Picloram]
996

Query: GR50 (DW % of NT); subject: O=C(O)COc1ccc(Cl)cc1Cl [2,4‐D, 2,4‐dichlorophenoxyacetic acid]
9.9

Query: GR50 (DW % of NT); subject: COc1c(Cl)ccc(-c2cc(N)c(Cl)c(C(=O)O)n2)c1F [Halauxifen]
0.6

Query: GR50 (DW % of NT); subject: O=C(O)COc1nc(Cl)c(Cl)cc1Cl [Triclopyr]
18.4

Query: GR50 (DW % of NT); subject: O=C(O)c1nc(Cl)ccc1Cl [Clopyralid]
3999

Query: GR50 (DW % of NT); subject: Nc1cc(Cl)nc(C(=O)O)c1Cl [Aminopyralid]
68.7

====

Reported pKd by item:
biological target: AtAFB2 (Arabidopsis thaliana); construct: His10 (N, cleaved yes); eGFP (N, cleaved yes); FLAG (N, cleaved yes); made in house; host or cells: baculovirus; Trichoplusia ni Hi5 cells (virus generated in Sf9); experiment: SPR single cycle kinetics, AtAFB2; format: binding; conditions: averaged equilibrium dissociation constant, SPR single cycle kinetics; read-out: Ave KD
Sequence (Q9LW29 whole entry, other chains not shown): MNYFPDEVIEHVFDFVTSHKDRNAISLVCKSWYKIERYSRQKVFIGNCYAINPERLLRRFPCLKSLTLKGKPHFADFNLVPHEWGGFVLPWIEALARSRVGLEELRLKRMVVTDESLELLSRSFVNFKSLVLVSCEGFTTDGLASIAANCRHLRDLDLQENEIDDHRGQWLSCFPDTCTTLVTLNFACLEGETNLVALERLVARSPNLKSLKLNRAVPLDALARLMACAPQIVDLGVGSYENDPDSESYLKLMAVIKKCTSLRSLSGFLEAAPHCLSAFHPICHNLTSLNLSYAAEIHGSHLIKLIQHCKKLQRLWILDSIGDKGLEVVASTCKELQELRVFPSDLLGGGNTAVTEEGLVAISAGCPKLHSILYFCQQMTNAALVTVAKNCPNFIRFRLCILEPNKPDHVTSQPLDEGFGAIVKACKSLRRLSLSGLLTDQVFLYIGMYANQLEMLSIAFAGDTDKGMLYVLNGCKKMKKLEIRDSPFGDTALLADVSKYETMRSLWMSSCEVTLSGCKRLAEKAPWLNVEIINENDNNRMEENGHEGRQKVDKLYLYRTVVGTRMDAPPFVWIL
Recall that pKd is obtained by taking minus log10 of the concentration measured in molar.

Query: pKd; subject: COc1c(Cl)ccc(-c2cc(N)c(Cl)c(C(=O)O)n2)c1F [Halauxifen]
3.48

Query: pKd; subject: COc1c(Cl)ccc(-c2nc(C(=O)O)c(Cl)c(N)c2F)c1F [Florpyrauxifen]
3.98

Query: pKd; subject: Nc1c(Cl)c(F)nc(OCC(=O)O)c1Cl [Fluroxypyr]
4.35

Query: pKd; subject: O=C(O)Cc1c[nH]c2ccccc12 [IAA, indole‐3‐acetic acid]
4.90

====

target: AtTIR1 (Arabidopsis thaliana, UniProt Q570C0); construct: His10 (N, cleaved yes); eGFP (N, cleaved yes); FLAG (N, cleaved yes); made in house; host or cells: baculovirus; Trichoplusia ni Hi5 cells (virus generated in Sf9); assay: biochemical; type: binding; conditions: averaged equilibrium dissociation constant, SPR single cycle kinetics; read-out: Ave KD
Sequence (Q570C0 whole entry, other chains not shown): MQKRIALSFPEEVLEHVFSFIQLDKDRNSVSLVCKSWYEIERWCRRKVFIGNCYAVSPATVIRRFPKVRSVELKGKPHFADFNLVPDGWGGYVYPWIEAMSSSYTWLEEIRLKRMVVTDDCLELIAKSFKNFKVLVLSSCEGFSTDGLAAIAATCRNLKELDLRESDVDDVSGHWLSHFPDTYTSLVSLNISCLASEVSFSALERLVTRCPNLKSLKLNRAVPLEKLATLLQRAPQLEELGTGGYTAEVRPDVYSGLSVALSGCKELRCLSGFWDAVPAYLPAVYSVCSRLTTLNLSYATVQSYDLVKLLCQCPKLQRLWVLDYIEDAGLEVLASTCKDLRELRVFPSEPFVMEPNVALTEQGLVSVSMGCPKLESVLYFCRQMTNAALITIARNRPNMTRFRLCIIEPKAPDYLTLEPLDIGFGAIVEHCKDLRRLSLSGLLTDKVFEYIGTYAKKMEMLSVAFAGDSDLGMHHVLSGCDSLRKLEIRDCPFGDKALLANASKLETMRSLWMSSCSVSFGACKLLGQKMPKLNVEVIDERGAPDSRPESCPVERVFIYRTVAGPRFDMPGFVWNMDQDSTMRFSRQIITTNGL
Sequence (Q39255 whole entry partner, other chains not shown): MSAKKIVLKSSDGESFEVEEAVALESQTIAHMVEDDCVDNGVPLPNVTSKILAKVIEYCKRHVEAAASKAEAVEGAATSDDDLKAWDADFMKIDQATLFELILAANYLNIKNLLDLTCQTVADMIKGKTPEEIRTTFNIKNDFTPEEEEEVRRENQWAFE
Reported pKd by item:
Recall that pKd is obtained by taking minus log10 of the concentration measured in molar.

Form field: pKd recorded for O=C(O)Cc1c[nH]c2ccccc12 with AtTIR1 (Arabidopsis thaliana, UniProt Q570C0) (enter value)
5.10

Data origin: paper PMC10952535
